- TARGET_ENTITY: BTK(WT) in HEK293-BTK(WT) cells (Homo sapiens)
- Construct: Full-length cDNAs of BTK containing C481S mutation was generated by mutagenesis
- ASSAY_OVERVIEW: HEK293-BTK(WT) p-BTK ELISA
- REPORTED_CONDITIONS: 1.5 hour
# IC50 values compiled below
READOUT_LABEL: IC50 (nM)

• Nc1nccn2c(C3CCC(CO)OC3)nc(-c3ccc(Oc4cccc(F)c4F)cc3)c12 (single isomer, unassigned) = 33.4
• Nc1ncnn2c(C3CCC(CO)OC3)nc(-c3ccc(Oc4ccccc4)c(F)c3F)c12 (stereo not drawn) = 17.6
• Nc1nccn2c(C3CCC(CO)OC3)nc(-c3ccc(Oc4ccccc4)cc3F)c12 (single isomer, unassigned) = 27.3
• Nc1nccn2c(C3CCC(CO)OC3)nc(-c3ccc(Oc4ccccc4)c(F)c3F)c12 (single isomer, unassigned) = 18.8
• Nc1ncnn2c(C3CCC(CO)OC3)nc(-c3ccc(Oc4ccccc4)cc3F)c12 (single isomer, unassigned) = 60
• Nc1ncnn2c(C3CCC(CO)OC3)nc(-c3ccc(Oc4cccc(F)c4F)cc3)c12 (stereo not drawn) = 16
